# credit: the supplement of paper PMC10567573

B1: PTPRD (parent)
chain: ITWFKDFLPVDTSNNNGRIKQLRS

- Variants of: B1
- Measurement description: protein stability index of a GFP-peptide fusion (GPS, HEK-293T) (PSI 1-6); higher = more stable;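 also: lentivirally expressed fusions sorted by FACS into six bins by GFP to DsRed ratio, PSI derived from sequencing read proportions per bin multiplied by bin number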
- Measurement setup: c terminus: a fixed tail appended
protein stability index values by entry
Value kind: protein stability index

- N14S: 2.94
- Q21Y: 1.93
- V10G: 2.28
- L8S: 2.04
- N14V: 1.76
- S24N: 1.88
- N14R: 1.98
- K5G: 2.17
- R23Q: 2.09
- S24Q: 1.78
- D11C: 2.23
